target: Histamine H1 receptor (Homo sapiens); settings: Compound concentration 10 µM
Description: PDSP Primary Binding target: HRH1 - Compounds are tested at 10 uM concentration, plate are incubated at room temperature in the dark for 90 minutes. Reaction are stopped by vacuum filtration onto 0.3% polyethyleneimine soaked filter mats using Filtermate harvester. Scintilation cocktail is then melted onto microwave-dried filters on a hot plate and the radio activity is counted in Microbia counter.
Recorded inhibition for the following compounds
Respond with the bare value in %.

{"columns": ["compound", "unit-abbrev", "inhibition"],
 "data": [
  ["CC(C)(N)C(=O)N[C@H](COCc1ccccc1)C(=O)N1CCC2(CC1)CN(S(C)(=O)=O)c1ccccc12", "%", 24.6],
  ["NCCc1cn(S(=O)(=O)c2c(Cl)nc3sccn23)c2ccccc12", "%", 52.1],
  ["C[C@@H](NCCc1ccc(O)cc1)[C@@H](O)c1ccc(O)cc1 (relative stereo)", "%", 24.2],
  ["c1ccc(N2CCN(Cc3nc4ccccc4[nH]3)CC2)nc1", "%", 15.6],
  ["CCCCC#Cc1nc(NC)c2ncn([C@@H]3O[C@H](CO)[C@@H](O)[C@H]3O)c2n1", "%", 20.6]
]}

Data request: API: value(readout= inhibition, system= Histamine H1 receptor (Homo sapiens), query= CC1(C)SSC(C)(C)[C@@H](NC(=O)[C@@H](N)Cc2ccc(O)cc2)C(=O)NCC(=O)N[C@@H](Cc2ccccc2)C(=O)N[C@H]1C(=O)O )
Data returned: 3.33

Data request: Look up inhibition with Histamine H1 receptor (Homo sapiens) for this compound: NC[C@@H]1O[C@H](C23CC4CC(CC(C4)C2)C3)Cc2c1ccc(O)c2O
Data returned: 38.4

Data request: Please provide the recorded inhibition for COc1ccccc1CN[C@H]1C2CCN(CC2)[C@H]1C(c1ccccc1)c1ccccc1 , tested on Histamine H1 receptor (Homo sapiens).
Data returned: 40.4

Data request: For Histamine H1 receptor (Homo sapiens), provide inhibition of N[C@H](C(=O)O)c1ccc(C(=O)O)c(C(=O)O)c1 please.
Data returned: 11.7

###

target: D(1B) dopamine receptor (Homo sapiens) (UniProt P21918); conditions: Compound concentration 10 µM
Sequence (P21918 whole entry): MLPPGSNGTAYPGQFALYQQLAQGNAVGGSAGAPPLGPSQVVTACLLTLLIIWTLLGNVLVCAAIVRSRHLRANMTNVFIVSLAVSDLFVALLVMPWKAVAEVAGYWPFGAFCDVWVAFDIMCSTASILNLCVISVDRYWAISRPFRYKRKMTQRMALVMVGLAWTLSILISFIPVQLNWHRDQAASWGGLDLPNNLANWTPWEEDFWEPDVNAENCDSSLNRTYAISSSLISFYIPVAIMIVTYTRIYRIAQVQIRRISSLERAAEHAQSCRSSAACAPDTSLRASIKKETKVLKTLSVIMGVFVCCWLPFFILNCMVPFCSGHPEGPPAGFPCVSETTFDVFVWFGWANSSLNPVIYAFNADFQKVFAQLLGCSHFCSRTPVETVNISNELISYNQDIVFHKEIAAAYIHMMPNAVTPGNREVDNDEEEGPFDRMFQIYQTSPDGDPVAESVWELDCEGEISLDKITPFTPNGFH
Description: PDSP Primary Binding target: DRD5 - Compounds are tested at 10 uM concentration, plate are incubated at room temperature in the dark for 90 minutes. Reaction are stopped by vacuum filtration onto 0.3% polyethyleneimine soaked filter mats using Filtermate harvester. Scintilation cocktail is then melted onto microwave-dried filters on a hot plate and the radio activity is counted in Microbia counter.
// inhibition lookup, one value per entry
Report the value in % with no unit label.

{"columns": ["compound", "unit-abbrev", "inhibition"],
 "data": [
  ["CO[C@@H]1COCC[C@@H]1N[C@@H]1CC[C@@](C(=O)N2CCc3ncc(C(F)(F)F)cc3C2)(C(C)C)C1", "%", 0.19],
  ["N#Cc1ccc2[nH]cc(CCCCN3CCN(c4ccc5oc(C(N)=O)cc5c4)CC3)c2c1", "%", 36.9]
]}

Data request: Item under review: CN(C)S(=O)(=O)c1ccc(NC(=S)N2CCC(C(O)(c3ccccc3)c3ccccc3)CC2)cc1 . Reported inhibition?
Data returned: 5.17

Data request: Data request, read-out inhibition, for Cc1nc(-c2ccc(-c3ccc(C(=O)N4CCc5cc6c(cc54)C4(CCN(C)CC4)CO6)cc3)c(C)c2)no1
Data returned: 57.1

Data request: What value of inhibition has been recorded for this entry: COc1cccc(-c2c(C)n(Cc3c(F)cccc3C(F)(F)F)c(=O)n(C[C@H](NCCCC(=O)O)c3ccccc3)c2=O)c1F
Data returned: 0.96

Data request: Item under review: Cc1ccccc1C(=O)Nc1ccc(C(=O)N2CCCC(O)c3cc(Cl)ccc32)c(C)c1 (stereo not drawn) . Reported inhibition?
Data returned: 8.81

Data request: What value of inhibition has been reported for the following compound? CC(C)Oc1ccccc1C(=O)Nc1ccccc1C(=O)Nc1cccc(S(=O)(=O)C(F)(F)F)c1
Data returned: 4.49

Data request: Report inhibition for O=c1ccc2ccc(OCCCCN3CCN(c4cccc5sccc45)CC3)cc2[nH]1 please.
Data returned: 88.1

Data request: Recorded inhibition of Cc1nc(C#Cc2ccnc(Cl)c2)c(C)n1-c1ccc(OC(F)(F)F)cc1 , please.
Data returned: 6

Data request: Quick check: inhibition of CCCCCCCCCCCCCCCCOC[C@H](COP(=O)([O-])OCC[N+](C)(C)C)OC(C)=O ?
Data returned: 13.6
